test system: B16F10 cells; experiment: Quantitative analysis of the content of melanin of B16F10 cells; assay type: cell-based, murine; details: 5.0 mM, 6 days; blank control = 100%
measured-parameter: Content of melanin of B16F10 cells (Mean ± SE) (%)

O=C1O[C@H]([C@@H](O)CO)C(OC2O[C@H](CO)[C@@H](O[C@@H]3O[C@H](CO)[C@H](O)[C@H](O)[C@H]3O)[C@H](O)[C@H]2O)=C1O (stereo partly shown)
22.24
O=c1cc(CO)occ1O
17.65
O=C1O[C@H]([C@@H](O)CO)C(O)=C1O[C@H]1O[C@H](CO)[C@@H](O)[C@H](O)[C@H]1O
84.19
OC[C@H]1O[C@@H](Oc2ccc(O)cc2)[C@H](O)[C@@H](O)[C@@H]1O
20.53

Hello, the source for this data is patent US20100204464A1, in case you need it.
